target: panel of more than 300 wild-type and mutant kinases (313 kinase panel) (Homo sapiens); assay: Kinase profiling in a biochemical assay panel (mobility shift assays and ELISA), %-inhibition at 1 μM; selectivity entropy; conditions: kinase CSK; compound at 1 μM
Sequence (P41240 whole entry, change not shown): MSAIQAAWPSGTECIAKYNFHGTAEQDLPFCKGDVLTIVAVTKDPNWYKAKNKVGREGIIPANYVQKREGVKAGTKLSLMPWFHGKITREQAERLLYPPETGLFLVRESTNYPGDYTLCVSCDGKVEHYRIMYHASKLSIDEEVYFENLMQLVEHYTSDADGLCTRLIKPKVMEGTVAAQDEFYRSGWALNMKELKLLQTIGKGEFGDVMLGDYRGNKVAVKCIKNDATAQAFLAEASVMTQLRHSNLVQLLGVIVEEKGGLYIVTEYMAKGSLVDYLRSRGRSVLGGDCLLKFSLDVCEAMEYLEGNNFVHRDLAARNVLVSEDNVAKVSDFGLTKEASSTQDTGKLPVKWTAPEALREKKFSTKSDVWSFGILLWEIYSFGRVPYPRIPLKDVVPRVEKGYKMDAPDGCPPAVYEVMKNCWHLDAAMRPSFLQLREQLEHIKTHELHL
observable: %-inhibition of CSK (%)
Give just the numeric value; % need not be written.

compound	%-inhibition of CSK (%)
COc1cc2nccc(Oc3ccc(NC(=O)C4(C(=O)Nc5ccc(F)cc5)CC4)cc3)c2cc1OC [cabozantinib]	60
C[C@@H](Oc1cc(-c2cnn(C3CCNCC3)c2)cnc1N)c1c(Cl)ccc(F)c1Cl [crizotinib]	9
COc1cc(Nc2c(C#N)cnc3cc(OCCCN4CCN(C)CC4)c(OC)cc23)c(Cl)cc1Cl [bosutinib]	84
CO[C@H]1C[C@@H]2CC[C@@H](C)[C@@](O)(O2)C(=O)C(=O)N2CCCC[C@H]2C(=O)O[C@H]([C@H](C)C[C@@H]2CC[C@@H](OCCO)[C@H](OC)C2)CC(=O)[C@H](C)/C=C(\C)[C@@H](O)[C@@H](OC)C(=O)[C@H](C)C[C@H](C)/C=C/C=C/C=C/1C [everolimus]	-7
Cc1ccc(Nc2nccc(N(C)c3ccc4c(C)n(C)nc4c3)n2)cc1S(N)(=O)=O [pazopanib]	12

Given O=S(=O)(c1cccc2cnccc12)N1CCCNCC1 [fasudil] , respond with its %-inhibition of CSK. -3.28

Given COc1cc2c(Nc3ccc(Br)cc3F)ncnc2cc1OCC1CCN(C)CC1 [vandetanib] , respond with its %-inhibition of CSK. 68
